assay: endothelial E-selectin expression blockers – imaging, HUVEC, immunofluorescence, MLSMR starter and 10KST1 sets, primary screen (AID 487); settings: HUVEC TNFalpha-induced E-selectin immunofluorescence imaging, at 2 µM; measured here: cell number, toxicity;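 also: 100% = median nuclei count of all wells on the same plate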
# reported nuclei count; entries follow
measuredQuantity: nuclei count (%)

| molecule | observedMeasurement |
| --- | --- |
| COC(=O)c1c(C)n(Cc2ccc3c(c2)OCO3)c2ccc(O)cc12 | 90.3 |
| CCC(C(=O)N1CCC2(CC1)OCCO2)c1ccccc1 (configuration not stated) | 99.5 |
| CCN(CC)c1ccc(N=Cc2c(O)n(-c3ccccc3C)c(=O)[nH]c2=O)cc1 | 172 |
| CCCCn1c(O)c(C(C)=Nc2cccc(C(=O)O)c2)c(=O)[nH]c1=O | 199 |
| NC(=O)CSP(=O)(c1ccccc1)c1ccccc1 | 105 |
| O=C1CC(c2ccccc2)CC(O)=C1C=NCCN1CCN(C(=O)Cc2ccccc2)CC1 (configuration not stated) | 115 |
| CN(C)CCN=Cc1c(O)n(-c2cccc3ccccc23)c(=O)[nH]c1=O | 110 |
| CCCCN1C(=O)NC(=O)C2(Cc3c(nc4c(C)cccn4c3=O)N3CCc4ccccc4C32)C1=O (configuration not stated) | 111 |
| Cc1cc(C)c(C(=O)CN2CCOCC2)c(C)c1 | 115 |
| CCn1nc(-c2ccccc2)nc2c(=O)n(C)c(=O)nc1-2 | 109 |
| CCOc1ccc(Cc2c(O)[nH]c(=O)[nH]c2=O)cc1 | 180 |
| CC(=O)[C@H]1CC[C@H]2[C@@H]3CC[C@H]4C[C@H](O)CC[C@]4(C)[C@H]3C(=O)C[C@]12C | 100 |
| O=C(NC1(C(F)(F)F)Oc2ccc(Cl)cc2O1)N1CCC2(CC1)OCCO2 (configuration not stated) | 108 |
| CC1=C(C(=O)N2CCC3(CC2)OCCO3)C2(CCC(C)CC2)OC1=O (configuration not stated) | 103 |
| O=c1[nH]c(=O)n(C2CCCCC2)c(O)c1C=NCCCn1ccnc1 | 153 |
| CC(C)Cc1[nH]c(=O)c(C#N)c2c1CCC2 | 119 |
| CC1(c2ccccc2)NCCN2C(=O)CSC21 (configuration not stated) | 147 |
| CC(=O)[C@@]1(O)CC[C@H]2[C@@H]3CC=C4C[C@@H](O)CC[C@]4(C)[C@H]3CC[C@@]21C | 129 |
| CC1(C)CC(=O)C=C(NCCN2CCN(C(=O)Cc3ccc(Cl)cc3)CC2)C1 | 109 |
| Clc1ccc(COC(Cn2ccnc2)c2ccc(Cl)cc2Cl)cc1 (configuration not stated) | 106 |
| COc1cc(/C=N/n2cnnc2)ccc1OC(=O)N(C)C | 98.1 |
| COc1ccc(C(=O)C(C)(C)NO)cc1 | 119 |
